Test system: KHYG-1 (IL-2 2.5 ng/mL);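 also: normalised to DMSO-only wells as negative and benzethonium chloride as positive control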
Assay: percent inhibition of viability; higher = more inhibition
Settings: 72 h; 10000 nM

{"columns": ["molecule", "percent inhibition of viability [%]"],
 "data": [
  ["O=C(CCBr)N1CCN(C(=O)CCBr)CC1 [Pipobroman] (max concentration tested 10000 nM)", 13.7],
  ["CC[C@H](CO)Nc1nc(NCc2ccccc2)c2ncn(C(C)C)c2n1 [Seliciclib] (max concentration tested 10000 nM)", 18.6],
  ["CNC(=O)c1nn(C)c2c1C(C)(C)Cc1cnc(Nc3ccc(N4CCN(C)CC4)cc3)nc1-2 [Milciclib] (max concentration tested 10000 nM)", 108]
]}
